Tested on: L. donovani intracellular amastigotes infecting THP-1 macrophages
PROTOCOL DESCRIPTION: GSK intramacrophage L. donovani assay (LD AMMAC, inMac; Assay Conditions C)
Assay type: cell-based
RECORDED CONDITIONS: Leishmania donovani; values marked c: THP-1 cells; read-out: L. donovani amastigotes EC50 (μM, THP-1 or B10R cells)
Please go through the items and note down their EC50.
Answers without a unit are incomplete; give the number and then its unit.

Some compounds with recorded EC50:
COMPOUND: CCCn1nc2c(c1CC(C)C)C(c1ccc(F)cc1)N(c1ccc(OC)cc1)C2=O (centres unmarked) [CMLD010990]
EC50: 7.9 µM
--
COMPOUND: CC(C)Cc1n[nH]c2c1C(C1CCCCC1)N(c1ccc(Br)cc1)C2=O (centres unmarked) [CMLD011087]
EC50: 6.3 µM
--
COMPOUND: C#CCn1nc2c(c1CC(C)C)C(c1ccc(F)cc1)N(c1ccc(OC)cc1)C2=O (centres unmarked) [CMLD010986]
EC50: 3.2 µM

Would you be so kind as to report EC50 for each listed record?
1. COc1ccc(N2C(=O)c3[nH]nc(CC(C)C)c3[C@H]2c2ccccc2Br)cn1 [CMLD010977]
2. COc1ccc(N2C(=O)c3nn(C)c(CC(C)C)c3C2c2ccc(F)cc2)cc1 (centres unmarked) [CMLD010988]
3. COc1ccc(N2C(=O)c3[nH]nc(CC(C)C)c3[C@H]2c2ccc(F)cc2)cc1 [CMLD013629]
4. CC(C)Cc1n[nH]c2c1C(c1ccccc1Cl)N(c1ccc(C(C)(C)C)cc1)C2=O (centres unmarked) [CMLD011047]
5. CC(C)Cc1nn(-c2ccc(OC(F)(F)F)cc2)c2c1C(c1ccccc1)NC2=O (centres unmarked) [CMLD009657]

1: 2 µM; 2: 7.9 µM; 3: 10 µM; 4: 3.2 µM; 5: 12.6 µM
